B1: TPR t1 (parent)
chain: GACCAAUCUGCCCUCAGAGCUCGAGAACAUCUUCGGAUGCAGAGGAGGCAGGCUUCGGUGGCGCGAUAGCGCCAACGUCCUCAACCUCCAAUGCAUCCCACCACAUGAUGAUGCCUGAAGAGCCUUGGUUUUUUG

Variants of: B1
Assay: polymerase ribozyme fitness, log enrichment relative to wild type (log ratio); higher = more active; in vitro selection for triplet polymerase activity
Returns one of Condition met or Condition not met; Condition met when polymerase ribozyme fitness (log ratio) is >= -3.

Please review the following examples before continuing.
# Mutation Descriptor, Category
measured = [
    ("C53A G127U", "Condition met"),
    ("C4U C70A G128C", "Condition not met"),
    ("U78A U96C", "Condition met"),
]

Query: Answer whether polymerase ribozyme fitness (log ratio) of A43U C123G G127C is greater than or equal to -3.
Result: Condition met

Query: Answer whether polymerase ribozyme fitness (log ratio) of C11G G47U G63A C79A is greater than or equal to -3.
Result: Condition not met

Query: Answer whether polymerase ribozyme fitness (log ratio) of C20A U32C C56U G57U G60U C62G is greater than or equal to -3.
Result: Condition not met

Query: Answer whether polymerase ribozyme fitness (log ratio) of C70A U126A is greater than or equal to -3.
Result: Condition met
